Cited source: patent US20260158017A1

target_or_test_system: Recombinant human KIF18A (1-467His-tagged) protein (Homo sapiens, UniProt Q8NI77)
Construct: Recombinant human KIF18A (1-467His-tagged) protein; His
Sequence (Q8NI77 1-467): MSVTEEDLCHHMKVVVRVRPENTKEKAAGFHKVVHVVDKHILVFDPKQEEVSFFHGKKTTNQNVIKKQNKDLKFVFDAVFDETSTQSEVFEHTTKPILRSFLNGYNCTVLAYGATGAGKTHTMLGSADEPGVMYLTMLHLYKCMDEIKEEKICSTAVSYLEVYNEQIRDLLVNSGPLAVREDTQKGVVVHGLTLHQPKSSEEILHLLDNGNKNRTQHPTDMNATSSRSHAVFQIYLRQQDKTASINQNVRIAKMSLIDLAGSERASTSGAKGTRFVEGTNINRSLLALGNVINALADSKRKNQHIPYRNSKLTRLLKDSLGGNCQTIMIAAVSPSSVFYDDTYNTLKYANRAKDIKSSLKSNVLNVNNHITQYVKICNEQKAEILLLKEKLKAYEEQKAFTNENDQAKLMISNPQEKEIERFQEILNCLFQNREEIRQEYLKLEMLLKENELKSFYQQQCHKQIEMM
Sequence (P02550 whole entry partner): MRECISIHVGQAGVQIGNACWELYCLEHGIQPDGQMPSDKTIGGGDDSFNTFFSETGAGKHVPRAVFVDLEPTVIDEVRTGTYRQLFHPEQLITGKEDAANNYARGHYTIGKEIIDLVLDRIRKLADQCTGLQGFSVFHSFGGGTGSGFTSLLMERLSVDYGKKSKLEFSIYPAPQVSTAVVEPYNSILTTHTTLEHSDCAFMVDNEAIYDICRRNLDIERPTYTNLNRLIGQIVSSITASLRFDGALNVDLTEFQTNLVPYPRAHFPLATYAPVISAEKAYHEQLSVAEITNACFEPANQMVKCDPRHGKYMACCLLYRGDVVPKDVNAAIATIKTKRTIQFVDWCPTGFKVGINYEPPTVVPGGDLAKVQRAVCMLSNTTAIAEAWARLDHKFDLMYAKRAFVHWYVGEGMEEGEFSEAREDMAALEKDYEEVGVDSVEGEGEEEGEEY
Sequence (P02554 whole entry partner): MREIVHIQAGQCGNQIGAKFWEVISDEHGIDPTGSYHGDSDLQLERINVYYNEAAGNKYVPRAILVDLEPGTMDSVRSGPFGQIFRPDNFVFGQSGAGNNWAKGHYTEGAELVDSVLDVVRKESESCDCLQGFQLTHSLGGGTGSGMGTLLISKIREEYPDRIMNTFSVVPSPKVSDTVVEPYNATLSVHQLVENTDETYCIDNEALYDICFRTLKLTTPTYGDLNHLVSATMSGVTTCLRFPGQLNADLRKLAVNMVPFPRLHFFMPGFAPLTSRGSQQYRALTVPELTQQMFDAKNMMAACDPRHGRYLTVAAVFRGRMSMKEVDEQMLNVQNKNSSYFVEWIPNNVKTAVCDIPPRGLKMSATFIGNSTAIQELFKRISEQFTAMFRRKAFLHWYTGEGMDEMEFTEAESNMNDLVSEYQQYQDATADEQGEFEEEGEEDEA
test_details: KIF18A enzyme assay (microtubule-stimulated ATPase activity, ADP-Glo)
assay_conditions: 30 nM KIF18A, 75 μM ATP, 30 μg/mL pig microtubules; read-out: Inhibitory activity against KIF18A IC50
pIC50: −log10 of the molar value.
observable: pIC50

Item under review: C[C@H](CO)S(=O)(=O)Nc1cc(N2CCC3(CC2)CC3)c(C(=O)Nc2ccc([N+](=O)[O-])c(N3CCC(F)(F)CC3)c2)cn1 . Reported pIC50?
≥ 7.00

Any idea what its pIC50 is? The molecule is O=C(Nc1ccc(OCF)c(N2CCC3(CC3)C2)n1)c1cnc(S(=O)(=O)NCCO)cc1N1CCC2(CC1)CC2
≥ 7.00

Need pIC50 of COc1ccc(C(=O)Nc2cnc(NS(=O)(=O)[C@@H](C)CO)cc2N2CCC3(CC2)CC3)nc1N1CCO[C@H](C)C1 , thanks.
≥ 7.00

Fill in the blank: the reported pIC50 of COc1ccc(C(=O)Nc2ccc(NS(=O)(=O)[C@H](C)CO)cc2N2CCC3(CC2)CC3)nc1N1CCO[C@H](C)C1 is ____.
≥ 7.00

For the molecule shown here, COc1ccc(C(=O)Nc2cnc(NS(=O)(=O)CCO)cc2N2CCC3(CC2)CC3)nc1N1CC2CC2C1 (centres unmarked) , give the reported pIC50.
≥ 7.00

Fill in: pIC50 of CC(C)(CO)Nc1cc(NC(=O)c2cnc(S(=O)(=O)NCCO)cc2N2CCC3(CC2)CC3)ccc1OCF is ___
≥ 7.00

Data request, read-out pIC50, for O=C(Nc1ccc(S(=O)(=O)NCCO)cc1N1CCC2(CC1)CC2)c1ccc(OCF)c(N2CC(F)(F)C2)n1
6.30 to 7.00

Please report the recorded pIC50 for O=C(Nc1ccc([N+](=O)[O-])c(N2CCC(F)CC2)n1)c1cnc(S(=O)(=O)NCCO)cc1N1CCC2(CC1)CC2 .
≥ 7.00

I have this molecule here, O=C(Nc1ccc(NS(=O)(=O)CCO)cc1N1CCC2(CC1)CC2)c1ccc(OCF)c(N2CCC(F)(F)CC2)c1 , and I need its recorded pIC50.
≥ 7.00

Quick check: pIC50 of O=C(Nc1cnc(S(=O)(=O)NCCO)cc1N1CCC2(CC1)CC2)c1ccc([N+](=O)[O-])c(N2CCC(F)(F)CC2)c1 ?
6.30 to 7.00

pIC50 lookup needed for C[C@H](CO)NS(=O)(=O)c1ccc(C(=O)Nc2ccc([N+](=O)[O-])c(N3CCC(F)(F)CC3)c2)c(N2CCC3(CC2)CC3)c1 , thanks.
≥ 7.00

Consider the molecule shown here: C[C@@H](CO)NS(=O)(=O)c1ccc(NC(=O)c2ccc(OCF)c(N3CCC(F)(F)CC3)c2)c(N2CCC3(CC2)CC3)c1 What is its recorded pIC50?
6.30 to 7.00

pIC50 for CSc1ccc(NC(=O)c2ccc(NS(=O)(=O)[C@H](C)CO)cc2N2CCC3(CC2)CC3)cc1N1CCC(F)(F)CC1 ?
≥ 7.00

Fill in: pIC50 of C[C@@H](CO)NS(=O)(=O)c1ccc(C(=O)Nc2ccc(OCF)c(N3CCC(F)(F)CC3)n2)c(N2CCC3(CC2)CC3)c1 is ___
≥ 7.00

Would you mind telling me what pIC50 value was observed for CSc1ccc(NC(=O)c2cnc(NS(=O)(=O)CCO)cc2N2CCC3(CC2)CC3)nc1N1CCC(F)CC1 ?
≥ 7.00

# input molecule: C[C@@H](CO)NS(=O)(=O)c1cc(N2CCC3(CC2)CC3)c(C(=O)Nc2ccc(OCF)c(N3CCC(F)(F)CC3)c2)cn1 ; wanted: its pIC50
≥ 7.00

So what's the measured pIC50 for this one? COc1ccc(NC(=O)c2ccc(NS(=O)(=O)CCO)cc2N2CCC3(CC2)CC3)nc1N1CCOCC1
≥ 7.00

// query pIC50 value for entry CC(C)(CO)Nc1cc(NC(=O)c2ccc(S(=O)(=O)NCCO)cc2N2CCC3(CC2)CC3)ccc1[N+](=O)[O-]
≥ 7.00

# input molecule: CSc1ccc(NC(=O)c2ccc(NS(=O)(=O)[C@@H](C)CO)cc2N2CCC3(CC2)CC3)cc1N1CCC(F)(F)CC1 ; wanted: its pIC50
≥ 7.00

I would be grateful if you could share the reported pIC50 for C[C@@H](CO)NS(=O)(=O)c1ccc(NC(=O)c2ccc([N+](=O)[O-])c(N3CCC(F)(F)CC3)n2)c(N2CCC3(CC2)CC3)c1 .
6.30 to 7.00

Can you share its pIC50? I mean this molecule: CC1(F)CCN(c2nc(NC(=O)c3ccc(NS(=O)(=O)CCO)cc3N3CCC4(CC3)CC4)ccc2[N+](=O)[O-])C1 (centres unmarked)
≥ 7.00

Given the molecule COc1ccc(NC(=O)c2cnc(NS(=O)(=O)CCO)cc2N2CCC3(CC2)CC3)nc1OC1CCC1 , what is its reported pIC50?
≥ 7.00

Can you share its pIC50? I mean this molecule: O=C(Nc1ccc([N+](=O)[O-])c(N2CCC3(CC3)C2)c1)c1ccc(NS(=O)(=O)CCO)cc1N1CCC2(CC1)CC2
≥ 7.00

So what does the record say about pIC50 for O=C(Nc1ccc(OCF)c(N2CCOCC2)c1)c1ccc(NS(=O)(=O)CCO)cc1N1CCC2(CC1)CC2 ?
≥ 7.00

Bench note: what pIC50 did C[C@@H](CO)S(=O)(=O)Nc1ccc(NC(=O)c2ccc(OCF)c(N3CCC(F)(F)CC3)n2)c(N2CCC3(CC2)CC3)c1 show?
≥ 7.00

Record request: pIC50 value, item COc1ccc(NC(=O)c2cnc(NS(=O)(=O)CCO)cc2N2CCC3(CC2)CC3)nc1NC(C)(C)CO
≥ 7.00
